type: in vivo, rat; settings: rat, plasma, iv, 10 mg/kg, VSS, control rats
metric name: Vd (L/kg)

- line notation: "C[C@@H]1CCN(C(=O)CC#N)C[C@@H]1N(C)c1ncnc2[nH]ccc12"
  reported result: 0.986

====

format: in vivo, rat; details: rat, plasma, iv, 10 mg/kg, AUC, control rats (n=9)

- molecule: "C[C@@H]1CCN(C(=O)CC#N)C[C@@H]1N(C)c1ncnc2[nH]ccc12 [tofacitinib]"
  units text: "ng·h/mL"
  AUC: 4270

====

assay type: in vivo, rat; settings: rat, plasma, po, 20 mg/kg, AUC, oral 20 mg/kg, control rats (n=8)

- compound: "C[C@@H]1CCN(C(=O)CC#N)C[C@@H]1N(C)c1ncnc2[nH]ccc12 [tofacitinib]"
  units text: "ng·h/mL"
  AUC: 3030
